- assayed_system: human PD-L1 (human) (UniProt Q9NZQ7)
- Sequence (Q9NZQ7 19-290): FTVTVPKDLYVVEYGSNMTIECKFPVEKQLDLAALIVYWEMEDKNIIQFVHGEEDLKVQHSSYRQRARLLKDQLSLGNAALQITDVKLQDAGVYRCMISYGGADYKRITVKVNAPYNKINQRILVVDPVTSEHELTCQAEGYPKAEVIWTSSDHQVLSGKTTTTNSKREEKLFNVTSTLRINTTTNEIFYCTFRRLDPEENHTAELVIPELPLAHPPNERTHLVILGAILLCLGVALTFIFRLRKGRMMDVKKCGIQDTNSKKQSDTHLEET
- assay_summary: flow cytometry; PD-L1 MFI over CD28 MFI of the same protein
measured_metric: Ratio of PDL1:CD28

| binder | quantitative_result |
| --- | --- |
| variant CD80 IgV-Fc E35D/M47V/N48K/V68M/L85Q (Fc fusion) VIHVTKEVKEVATLSCGHNVSVEELAQTRIYWQKDKKMVLTMMSGDVKIWPEYKNRTIFDITNNLSIMILALRPSDEGTYECVVQKYEKDAFKREHLAEVTLSVKAD | 88.8 |
| variant CD80 IgV-Fc E35D/M47L/V68M (Fc fusion) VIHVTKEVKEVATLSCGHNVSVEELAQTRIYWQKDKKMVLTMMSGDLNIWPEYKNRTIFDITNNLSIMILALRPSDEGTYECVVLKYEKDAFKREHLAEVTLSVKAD | 22.4 |
| variant CD80 IgV-Fc M47V/N48K/V68M (Fc fusion) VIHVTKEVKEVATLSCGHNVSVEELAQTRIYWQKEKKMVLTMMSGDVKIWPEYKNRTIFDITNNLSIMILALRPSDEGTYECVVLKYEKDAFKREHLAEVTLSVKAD | 22.6 |
| variant CD80 IgV-Fc E35D/D46V/M47V/V68M/L85Q (Fc fusion) VIHVTKEVKEVATLSCGHNVSVEELAQTRIYWQKDKKMVLTMMSGVVNIWPEYKNRTIFDITNNLSIMILALRPSDEGTYECVVQKYEKDAFKREHLAEVTLSVKAD | 79.4 |
| variant CD80 IgV-Fc M47V (Fc fusion) VIHVTKEVKEVATLSCGHNVSVEELAQTRIYWQKEKKMVLTMMSGDVNIWPEYKNRTIFDITNNLSIVILALRPSDEGTYECVVLKYEKDAFKREHLAEVTLSVKAD | 33.7 |
| variant CD80 IgV-Fc E35D/D46V/M47L/V68M/L85Q (Fc fusion) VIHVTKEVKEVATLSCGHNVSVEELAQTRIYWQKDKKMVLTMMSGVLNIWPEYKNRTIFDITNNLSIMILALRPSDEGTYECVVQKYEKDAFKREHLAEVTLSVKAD | 61.2 |
| variant CD80 IgV-Fc D46V/M47L/V68M (Fc fusion) VIHVTKEVKEVATLSCGHNVSVEELAQTRIYWQKEKKMVLTMMSGVLNIWPEYKNRTIFDITNNLSIMILALRPSDEGTYECVVLKYEKDAFKREHLAEVTLSVKAD | 12.8 |
| variant CD80 IgV-Fc D46V/L85Q (Fc fusion) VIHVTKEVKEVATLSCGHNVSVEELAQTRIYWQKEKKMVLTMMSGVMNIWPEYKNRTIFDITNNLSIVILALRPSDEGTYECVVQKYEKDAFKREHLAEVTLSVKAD | 16.8 |

Origin of the recorded values: patent US20220177587A1
